Listing of entries alongside the reported MIC.
# System: P. aeruginosa ATCC 9027
# Assay type: cell-based, Pseudomonas aeruginosa
# condition_summary: ATCC 9027, 18 h
Peptide text beside a SMILES is read from it. * marks the point of attachment. Decanoyl = CCCCCCCCCC(=O)*; Octanoyl = CCCCCCCC(=O)*; X1 = O=C(/C=C/c1ccccc1)*; Hexanoyl = CCCCCC(=O)*; Butyryl = CCCC(=O)*

# compound, MIC / µg/mL
records = [
    ("CC[C@H](C)[C@H](NC(=O)[C@H](CCCNC(=N)N)NC(=O)[C@H](CCC(N)=O)NC(=O)[C@@H](NC(=O)[C@@H](NC(=O)[C@H](CCCNC(=N)N)NC(=O)[C@H](CCCCN)NC(=O)/C=C/c1ccccc1)[C@@H](C)CC)C(C)C)C(=O)N[C@@H](CCCCN)C(=O)N[C@@H](CC(=O)O)C(=O)N[C@@H](Cc1ccccc1)C(=O)N[C@@H](CC(C)C)C(=O)N[C@@H](CCCNC(=N)N)C(N)=O [IX, trans-Cinnamic acid-KR12-NH2] (X1-KRIVQRIKDFLR-NH2)", 4),
    ("CCCCCCCCCC(=O)N[C@@H](CCCCN)C(=O)N[C@@H](CCCNC(=N)N)C(=O)N[C@H](C(=O)N[C@H](C(=O)N[C@@H](CCC(N)=O)C(=O)N[C@@H](CCCNC(=N)N)C(=O)N[C@H](C(=O)N[C@@H](CCCCN)C(=O)N[C@@H](CC(=O)O)C(=O)N[C@@H](Cc1ccccc1)C(=O)N[C@@H](CC(C)C)C(=O)N[C@@H](CCCNC(=N)N)C(N)=O)[C@@H](C)CC)C(C)C)[C@@H](C)CC [V, C10-KR12-NH2] (Decanoyl-KRIVQRIKDFLR-NH2)", 8),
    ("CCCCCCCC(=O)N[C@@H](CCCCN)C(=O)N[C@@H](CCCNC(=N)N)C(=O)N[C@H](C(=O)N[C@H](C(=O)N[C@@H](CCC(N)=O)C(=O)N[C@@H](CCCNC(=N)N)C(=O)N[C@H](C(=O)N[C@@H](CCCCN)C(=O)N[C@@H](CC(=O)O)C(=O)N[C@@H](Cc1ccccc1)C(=O)N[C@@H](CC(C)C)C(=O)N[C@@H](CCCNC(=N)N)C(N)=O)[C@@H](C)CC)C(C)C)[C@@H](C)CC [IV, C8-KR12-NH2] (Octanoyl-KRIVQRIKDFLR-NH2)", 2),
    ("CCCCCC(=O)N[C@@H](CCCCN)C(=O)N[C@@H](CCCNC(=N)N)C(=O)N[C@H](C(=O)N[C@H](C(=O)N[C@@H](CCC(N)=O)C(=O)N[C@@H](CCCNC(=N)N)C(=O)N[C@H](C(=O)N[C@@H](CCCCN)C(=O)N[C@@H](CC(=O)O)C(=O)N[C@@H](Cc1ccccc1)C(=O)N[C@@H](CC(C)C)C(=O)N[C@@H](CCCNC(=N)N)C(N)=O)[C@@H](C)CC)C(C)C)[C@@H](C)CC [III, C6-KR12-NH2] (Hexanoyl-KRIVQRIKDFLR-NH2)", 8),
    ("CCCC(=O)N[C@@H](CCCCN)C(=O)N[C@@H](CCCNC(=N)N)C(=O)N[C@H](C(=O)N[C@H](C(=O)N[C@@H](CCC(N)=O)C(=O)N[C@@H](CCCNC(=N)N)C(=O)N[C@H](C(=O)N[C@@H](CCCCN)C(=O)N[C@@H](CC(=O)O)C(=O)N[C@@H](Cc1ccccc1)C(=O)N[C@@H](CC(C)C)C(=O)N[C@@H](CCCNC(=N)N)C(N)=O)[C@@H](C)CC)C(C)C)[C@@H](C)CC [II, C4-KR12-NH2] (Butyryl-KRIVQRIKDFLR-NH2)", 32),
]

* * *

# System: S. aureus ATCC 25923 biofilm
# Format: cell-based, Staphylococcus aureus
# condition_summary: ATCC 25923, 24 h
# Method: The MBECs values were determined according to the method reported previously. […] After 1 h of incubation, the MBECs were read out. The determined values were recorded as the lowest concentration at which the reduction of resazurin (from blue to pink) was lower or equal to 10 ± 0.5% as compared to the positive (100%) and negative (0%) controls. […]
Peptide text beside a SMILES is read from it. * marks the point of attachment. Myristoyl = CCCCCCCCCCCCCC(=O)*; Hexanoyl = CCCCCC(=O)*

# molecule, MBEC
data = [
    ("CCCCCCCCCCCCCC(=O)N[C@@H](CCCCN)C(=O)N[C@@H](CCCNC(=N)N)C(=O)N[C@H](C(=O)N[C@H](C(=O)N[C@@H](CCC(N)=O)C(=O)N[C@@H](CCCNC(=N)N)C(=O)N[C@H](C(=O)N[C@@H](CCCCN)C(=O)N[C@@H](CC(=O)O)C(=O)N[C@@H](Cc1ccccc1)C(=O)N[C@@H](CC(C)C)C(=O)N[C@@H](CCCNC(=N)N)C(N)=O)[C@@H](C)CC)C(C)C)[C@@H](C)CC [VII, C14-KR12-NH2] (Myristoyl-KRIVQRIKDFLR-NH2)", "256 µg/mL"),
    ("CCCCCC(=O)N[C@@H](CCCCN)C(=O)N[C@@H](CCCNC(=N)N)C(=O)N[C@H](C(=O)N[C@H](C(=O)N[C@@H](CCC(N)=O)C(=O)N[C@@H](CCCNC(=N)N)C(=O)N[C@H](C(=O)N[C@@H](CCCCN)C(=O)N[C@@H](CC(=O)O)C(=O)N[C@@H](Cc1ccccc1)C(=O)N[C@@H](CC(C)C)C(=O)N[C@@H](CCCNC(=N)N)C(N)=O)[C@@H](C)CC)C(C)C)[C@@H](C)CC [III, C6-KR12-NH2] (Hexanoyl-KRIVQRIKDFLR-NH2)", "32 µg/mL"),
]

* * *

# Tested on: K. aerogenes ATCC 13048
# Format: cell-based, Klebsiella aerogenes
# condition_summary: ATCC 13048, 18 h
Peptide text beside a SMILES is read from it. * marks the point of attachment. Myristoyl = CCCCCCCCCCCCCC(=O)*; Lauroyl = CCCCCCCCCCCC(=O)*; Decanoyl = CCCCCCCCCC(=O)*; Octanoyl = CCCCCCCC(=O)*; X1 = O=C(/C=C/c1ccccc1)*; Hexanoyl = CCCCCC(=O)*; Butyryl = CCCC(=O)*

# compound, measured_on, MIC (µg/mL)
records = [
    ("CCCCCCCCCCCCCC(=O)N[C@@H](CCCCN)C(=O)N[C@@H](CCCNC(=N)N)C(=O)N[C@H](C(=O)N[C@H](C(=O)N[C@@H](CCC(N)=O)C(=O)N[C@@H](CCCNC(=N)N)C(=O)N[C@H](C(=O)N[C@@H](CCCCN)C(=O)N[C@@H](CC(=O)O)C(=O)N[C@@H](Cc1ccccc1)C(=O)N[C@@H](CC(C)C)C(=O)N[C@@H](CCCNC(=N)N)C(N)=O)[C@@H](C)CC)C(C)C)[C@@H](C)CC [VII, C14-KR12-NH2] (Myristoyl-KRIVQRIKDFLR-NH2)", "K. aerogenes ATCC 13048", 128),
    ("CCCCCC(=O)N[C@@H](CCCCN)C(=O)N[C@@H](CCCNC(=N)N)C(=O)N[C@H](C(=O)N[C@H](C(=O)N[C@@H](CCC(N)=O)C(=O)N[C@@H](CCCNC(=N)N)C(=O)N[C@H](C(=O)N[C@@H](CCCCN)C(=O)N[C@@H](CC(=O)O)C(=O)N[C@@H](Cc1ccccc1)C(=O)N[C@@H](CC(C)C)C(=O)N[C@@H](CCCNC(=N)N)C(N)=O)[C@@H](C)CC)C(C)C)[C@@H](C)CC [III, C6-KR12-NH2] (Hexanoyl-KRIVQRIKDFLR-NH2)", "K. aerogenes ATCC 13048", 16),
    ("CCCCCCCCCC(=O)N[C@@H](CCCCN)C(=O)N[C@@H](CCCNC(=N)N)C(=O)N[C@H](C(=O)N[C@H](C(=O)N[C@@H](CCC(N)=O)C(=O)N[C@@H](CCCNC(=N)N)C(=O)N[C@H](C(=O)N[C@@H](CCCCN)C(=O)N[C@@H](CC(=O)O)C(=O)N[C@@H](Cc1ccccc1)C(=O)N[C@@H](CC(C)C)C(=O)N[C@@H](CCCNC(=N)N)C(N)=O)[C@@H](C)CC)C(C)C)[C@@H](C)CC [V, C10-KR12-NH2] (Decanoyl-KRIVQRIKDFLR-NH2)", "K. aerogenes ATCC 13048", 16),
    ("CCCCCCCC(=O)N[C@@H](CCCCN)C(=O)N[C@@H](CCCNC(=N)N)C(=O)N[C@H](C(=O)N[C@H](C(=O)N[C@@H](CCC(N)=O)C(=O)N[C@@H](CCCNC(=N)N)C(=O)N[C@H](C(=O)N[C@@H](CCCCN)C(=O)N[C@@H](CC(=O)O)C(=O)N[C@@H](Cc1ccccc1)C(=O)N[C@@H](CC(C)C)C(=O)N[C@@H](CCCNC(=N)N)C(N)=O)[C@@H](C)CC)C(C)C)[C@@H](C)CC [IV, C8-KR12-NH2] (Octanoyl-KRIVQRIKDFLR-NH2)", "K. aerogenes ATCC 13048", 2),
    ("CCCCCCCCCCCC(=O)N[C@@H](CCCCN)C(=O)N[C@@H](CCCNC(=N)N)C(=O)N[C@H](C(=O)N[C@H](C(=O)N[C@@H](CCC(N)=O)C(=O)N[C@@H](CCCNC(=N)N)C(=O)N[C@H](C(=O)N[C@@H](CCCCN)C(=O)N[C@@H](CC(=O)O)C(=O)N[C@@H](Cc1ccccc1)C(=O)N[C@@H](CC(C)C)C(=O)N[C@@H](CCCNC(=N)N)C(N)=O)[C@@H](C)CC)C(C)C)[C@@H](C)CC [VI, C12-KR12-NH2] (Lauroyl-KRIVQRIKDFLR-NH2)", "K. aerogenes ATCC 13048", 32),
    ("CCCC(=O)N[C@@H](CCCCN)C(=O)N[C@@H](CCCNC(=N)N)C(=O)N[C@H](C(=O)N[C@H](C(=O)N[C@@H](CCC(N)=O)C(=O)N[C@@H](CCCNC(=N)N)C(=O)N[C@H](C(=O)N[C@@H](CCCCN)C(=O)N[C@@H](CC(=O)O)C(=O)N[C@@H](Cc1ccccc1)C(=O)N[C@@H](CC(C)C)C(=O)N[C@@H](CCCNC(=N)N)C(N)=O)[C@@H](C)CC)C(C)C)[C@@H](C)CC [II, C4-KR12-NH2] (Butyryl-KRIVQRIKDFLR-NH2)", "K. aerogenes ATCC 13048", 128),
    ("CC[C@H](C)[C@H](NC(=O)[C@H](CCCNC(=N)N)NC(=O)[C@H](CCC(N)=O)NC(=O)[C@@H](NC(=O)[C@@H](NC(=O)[C@H](CCCNC(=N)N)NC(=O)[C@H](CCCCN)NC(=O)/C=C/c1ccccc1)[C@@H](C)CC)C(C)C)C(=O)N[C@@H](CCCCN)C(=O)N[C@@H](CC(=O)O)C(=O)N[C@@H](Cc1ccccc1)C(=O)N[C@@H](CC(C)C)C(=O)N[C@@H](CCCNC(=N)N)C(N)=O [IX, trans-Cinnamic acid-KR12-NH2] (X1-KRIVQRIKDFLR-NH2)", "K. aerogenes ATCC 13048", 4),
]
